protocol: soluble on expression in E. coli; label from the status in PepcDB or PDB records

>  <seqText>
VKVRYENDKYLIPFASLDANQRMEFDLKDPQGKVILLAGKKLTSRKIKELKENHLEWVEYPMDILLNRHLAEPVMVGKEVLLDMLTQLDKNKLEKIHDLG

>  <soluble on expression in E. coli>
not soluble

$$$$
>  <seqText>
SDVYNNTAFFEQYMKRRYRENSPNESIEKPVFFQLIGHVQGKQILDLGCGDAKFGAELLEKGCYSYTGIEGSELMYEKAKKQLENKNGSVHFLNLKDYTYPSSTFDLVTSRLALHYIEHLDTIFQNVFQTLKTNGTFTFSVQHPVITSSFESLQTSGKRTIWLVDDYFKLGKRVEPWIDQEVIKYHRTTEEYFTLLQQAGFTITSLKEATPNPTYFQDEEEYKRRLRIPLFLLFSCTK

>  <soluble on expression in E. coli>
soluble

$$$$
>  <seqText>
MAHHHHHHMDDFPLSLCSSNIRETMFKVTAPLFLALTTSNAIALSRGTSVSVSSEGGKCNEIWYSNGKEMCGSPLAPQSSTVQRALPPAPAPAKKPESSLRSGDEVATQHEERGGLDLRSIASRQPSFDALSATINGERQVGRASGTAIRGGNEGSAEPSSDEGQQRTTELWSGQAEGQVKQMAEGEQRNPGSGDEGQNQGGDVAPLQVAKEGESNMKWPPAQRVILGTVKENAQKETRKDLDDLEQEANSTQVGRTTAHKRHVMLITATLSFICVQRLLV

>  <soluble on expression in E. coli>
soluble

$$$$
>  <seqText>
MGSDKIHHHHHHMKTRESSVGLKFRKFNRFYTNVLGFLNEHIYDSPFSLTETRILFEIYNTPNCTAKALQDKLGLDRGYVSRIVKQFEKEDLIYKQRSKDDARHHYIFVTETGKTIYKKLEEKANEQVELMLKVINQKEQHKLAEAMAEIEAILSQSLSARASEISIRDYFLSEDLQLLIEKQRQFYAEAHGWDDTFLAYLQETFDADIEKIWIAESGGKFAGSVGLVKHDEKTVQLRWFLVDADFRGRGLGTQLLEHLVAYCQDMKFDRIFLWTVSTMAEARPLYKKFGFRISEVKQEAPLWGQQLTEERWDLELS

>  <soluble on expression in E. coli>
not soluble

$$$$
>  <seqText>
MSPGSSTGMVSEKCGDAESKRAPYPPPLRLARRVCYPQYTQKSLDMRAQEKLVGRKRDMKMARFLAKQAKESKEMVKKAAKETTEKTTKNDSTV

>  <soluble on expression in E. coli>
not soluble

$$$$
>  <seqText>
DAAPAPAAEAAPAAAPAPAAAAELKEVHVPDIGGDEVEVTEIMVAIGDSIEEEQSLITVEGDKASMEVPAPFAGTLKEIKVAAGDKVSTGSLIMVFETAGSGAPAAPAAVEAPAAAAPAASAA

>  <soluble on expression in E. coli>
not soluble

$$$$
>  <seqText>
MGSDKIHHHHHHMSLCLFCDQPFTGDLDMRRLLLPGKSKTSCLCPSCRQLFAQIGTAFCPQCGRQQDSGEICQDCQKWRRIYQGNFLHNQAVYCYNQAFHDLMVRYKRYGDYLLCQVLQELAAPAVQKLAADYYVPVPTSPEHRKKRGYDTVWEIFTPLLPLTPLLAKKAGAGAQGEKDKKARMQAKQNFFLNPEFRGTITGKIILLDDIYTTGRTLYHARDAIEKAFPKCQVESFSISR

>  <soluble on expression in E. coli>
not soluble

$$$$
